system: TO-3-N3 (biotin conjugate); experiment: pull-down binding Z-score (relative to library population); higher = stronger binding; conditions: RNA library: Library-2
Condition met means recorded pull-down binding Z-score is -0.2 or above; Condition not met means it is below -0.2.

Example entries and their recorded answers appear below.
CCUGACUUAAAUGGUGAUGUGGUGGCUAUUGAUUAUAAACACUACACACCCUCUUUUAAGAAAGG; Condition met
CUCGGGAGGCUGAG [hsa-mir-4419a]; Condition not met
GUAUGAGCAGUAUAU [DMSMaPseq_invitro_SARS-CoV-2_Motif_451]; Condition not met
AGAUCCCCUGUUAGAGACGGGCC [hsa-mir-6840]; Condition met

# ---- query sequence ----
Ask: Textbook exercise: given the entry GGUAAUUAUACAGUUUCCUGUUUACCUUUUACAAUUAAUUGCC [SHAPE_invitro_SARS-CoV-2_Motif_513] , state whether its pull-down binding Z-score is greater than or equal to -0.2.
Reply: Condition not met
